# assay.summary: Pharmacokinetics of dextrorphan or dextrorphan PABA carbamate, dogs (Example 48)
# Type: in vivo, beagle dogs
# conditions: female, beagle, dog, plasma, po, 5 mg dextrorphan free base equivalents/kg, dextrorphan in plasma after oral dextrorphan, 5 mg free base equivalents/kg, female dogs; Mean; read-out: AUC
experimental.readout: AUC (ng·h/mL)
Kindly provide the numeric value in ng·h/mL only, without the unit symbol.

Fill in the blank: the reported AUC of CN1CC[C@@]23CCCC[C@@H]2[C@@H]1Cc1ccc(O)cc13 [dextrorphan] is ____.
12.7

---

# assay.summary: Pharmacokinetics of meptazinol or meptazinol PABA carbamate, monkeys (Example 29)
# Format: in vivo, monkey
# conditions: monkey, plasma, iv, 1 mg/kg, meptazinol in plasma, iv meptazinol 1 mg free base equivalents/kg, mean, read-out: AUC
experimental.readout: AUC (ng·h/mL)
Express the result in ng·h/mL but write the number alone.

Looking for the measured AUC of CCC1(c2cccc(O)c2)CCCCN(C)C1 (stereo not shown) , can you help?
232

---

# assay.summary: Pharmacokinetics of meptazinol or meptazinol PABA carbamate, monkeys (Example 29)
# Assay type: in vivo, monkey
# conditions: monkey, plasma, iv, 1 mg/kg, iv meptazinol 1 mg free base equivalents/kg, mean
experimental.readout: clearance (mL/min/kg)
Expressed in mL/min/kg, but write only the number.

Which clearance reading was recorded for the compound CCC1(c2cccc(O)c2)CCCCN(C)C1 (stereo not shown) ?
72.2

---

# assay.summary: in vivo
# conditions: male, rat, plasma, po, 10 mg naloxone free base equivalents/kg, Cmax, naloxone in plasma after oral naloxone, 10 mg free base equivalents/kg, male rats; single animal
experimental.readout: Cmax (ng/mL)
Please respond with the number in ng/mL and leave the unit unwritten.

Sample `C=CCN1CC[C@]23c4c5ccc(O)c4O[C@H]2C(=O)CC[C@@]3(O)[C@H]1C5` — what was its Cmax?
7.1

---

# assay.summary: Pharmacokinetics of meptazinol or meptazinol PABA carbamate, dogs (Example 27)
# Type: in vivo, dog
# conditions: dog, plasma, iv, 1 mg/kg, iv meptazinol 1 mg free base equivalents/kg, mean, read-out: Vss
experimental.readout: Vd (L)
Report only the number, with the unit L understood.

Vd for CCC1(c2cccc(O)c2)CCCCN(C)C1 (stereo not shown) ?
3.55

---

# assay.summary: Pharmacokinetics of nalbuphine or nalbuphine PABA carbamate, rats (Example 42)
# Format: in vivo, Wistar rats
# conditions: male, Wistar, rat, plasma, po, 3 mg nalbuphine free base equivalents/kg, nalbuphine PABA carbamate in plasma after oral p-aminobenzoic acid carbamate prodrug, 3 mg nalbuphine equivs/kg, Mean, read-out: Cmax
experimental.readout: Cmax

Cmax for O=C(Nc1ccc(C(=O)O)cc1)Oc1ccc2c3c1O[C@H]1[C@@H](O)CC[C@@]4(O)[C@@H](C2)N(CC2CCC2)CC[C@]314 [nalbuphine PABA carbamate] ?
12 ng/mL

---

# assay.summary: Pharmacokinetics of butorphanol or butorphanol PABA carbamate, dogs (Example 44)
# Format: in vivo, beagle dogs
# conditions: male, beagle, dog, plasma, po, 0.5 mg/kg, butorphanol in plasma after oral butorphanol, 0.5 mg butorphanol free base/kg, single animal, read-out: Tmax
experimental.readout: Tmax (min)
Respond numerically; units are min and should not be typed.

Using the record for `Oc1ccc2c(c1)[C@@]13CCCC[C@@]1(O)[C@@H](C2)N(CC1CCC1)CC3` , report its Tmax.
30

---

# assay.summary: in vivo
# conditions: monkey, read-out: Monkey Oral Bioavailability (%)
Counter-ions that a name gives are not always drawn.
experimental.readout: bioavailability (%)
Answer in %, number only, no unit symbol.

Quick check: bioavailability of CCC1(c2cccc(O)c2)CCCCN(C)C1 (stereo not shown) [Meptazinol HCl (oral), Meptazinol HCl] ?
1.8
